- Method Summary: 35°C color optical density (A35): absorbancy difference ε(240)-ε(0) after 240 s light irradiation at 35°C
- Type: physicochemical
- Measurement Context: cured product by kneading method, 1 mm, 240 s irradiation
So I've got a bunch of compounds here, and I need their A35 (-) values.

1) COc1ccc(C2(c3ccc(OC)cc3)C=Cc3c4c(c5cc(N(C)c6ccccc6)c(OC)cc5c3O2)-c2ccccc2C4(C)C)cc1; 0.83 -
2) COc1ccc(C2(c3ccc(OC)cc3)C=Cc3c4c(c5cc(N(C)c6ccc(F)cc6)c(OC)cc5c3O2)-c2ccccc2C4(C)C)cc1; 0.81 -
3) CCCC1(CCC)c2ccccc2-c2c1c1c(c3cc(OC)c(N4CCOc5ccccc54)cc23)OC(c2ccc(OC)cc2)(c2ccc(OC)cc2)C=C1; 0.91 -
4) COc1ccc(C2(c3ccc(OC)cc3)C=Cc3c4c(c5cc(N(c6ccccc6)c6ccccc6)c(OC)cc5c3O2)-c2ccccc2C4(C)C)cc1; 1.07 -
5) COc1ccc(C2(c3ccc(OC)cc3)C=Cc3c4c(c5cc(N6CCOc7ccccc76)c(OC)cc5c3O2)-c2ccccc2C4(C)C)cc1; 0.91 -

Would you be so kind as to report A35 (-) for each listed record?
1. COc1ccc(C2(c3ccc(N4CCOCC4)cc3)C=Cc3c4c(c5cc(N6CCCc7ccccc76)c(OC)cc5c3O2)-c2ccc(C)cc2C4(CCCC(F)(F)F)CCCC(F)(F)F)cc1 (stereo not shown)
2. CCCOc1ccc(C2(c3ccc(OCCC)cc3)C=Cc3c4c(c5cc(N(C)c6ccc(C)cc6)c(OC)cc5c3O2)-c2ccccc2C4(CCCCOC)CCCCOC)cc1

output:
0.79 -
0.87 -
